meta.source: ChEMBL document CHEMBL3988442

# Percent Effect values compiled below
Biological target: Tyrosyl-tRNA synthetase, putative (Trypanosoma cruzi (strain CL Brener)) (UniProt Q4DSP6)
Sequence (Q4DSP6 as listed by the source): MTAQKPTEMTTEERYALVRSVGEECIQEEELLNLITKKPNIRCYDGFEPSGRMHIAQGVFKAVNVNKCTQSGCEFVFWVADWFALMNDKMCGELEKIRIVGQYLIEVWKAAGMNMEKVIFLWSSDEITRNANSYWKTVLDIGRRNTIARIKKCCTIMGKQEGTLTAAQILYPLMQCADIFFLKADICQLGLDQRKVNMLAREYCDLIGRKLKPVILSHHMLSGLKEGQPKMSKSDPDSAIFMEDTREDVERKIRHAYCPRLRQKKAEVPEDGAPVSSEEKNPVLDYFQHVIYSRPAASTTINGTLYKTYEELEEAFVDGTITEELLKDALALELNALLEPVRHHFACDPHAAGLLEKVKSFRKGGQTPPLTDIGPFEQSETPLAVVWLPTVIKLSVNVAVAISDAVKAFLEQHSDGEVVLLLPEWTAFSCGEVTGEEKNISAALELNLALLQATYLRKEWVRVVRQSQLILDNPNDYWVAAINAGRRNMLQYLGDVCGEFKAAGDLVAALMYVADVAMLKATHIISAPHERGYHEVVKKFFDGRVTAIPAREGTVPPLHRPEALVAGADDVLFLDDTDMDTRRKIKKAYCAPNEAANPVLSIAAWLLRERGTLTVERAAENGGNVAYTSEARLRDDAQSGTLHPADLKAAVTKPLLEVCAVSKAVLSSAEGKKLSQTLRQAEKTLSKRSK
Test: Trypanosoma cruzi tyrosyl tRNA synthetase (TcYRS) SOP
Format: functional
Parameters: scale not given: direction of the effect not stated beside the values
Conditions: 30 µM

compound	Percent Effect (%)
CCNc1cc2c(nn1)CCN(C(=O)c1ccc(NC3CC3)nc1)C2	9.76
Cc1oc(C)c(C(=O)NCc2cccnc2N(C)C)c1C	12.2
COc1cccc(CNC(=O)C(c2cccc(F)c2)N2CCOCC2)c1 (configuration not stated)	18.2
CNc1nc2c(s1)C(c1c(F)cccc1Cl)CC(=O)N2 (configuration not stated)	2.6
CCN1C(=O)CCC12CCCN(Cc1nccs1)CC2 (configuration not stated)	16.7
COc1c(C(=O)NCc2cccnc2)nnn1Cc1ccc(C)cc1	2.56
Fc1ccc(CCN2CCC(c3nnc(-c4cccnc4)o3)CC2)cc1	9.09
COC(=O)c1cccc(NS(=O)(=O)c2cnc(NC(C)=O)s2)c1	0
CS(=O)(=O)NC1CCc2c(ccc(=O)n2CC2CC2)C1 (configuration not stated)	14.1
O=C(Cc1ccc2c(c1)CCCC2)NCCc1ccccn1	23.5
COc1ccc2cc(C(=O)N3CCCCC3CC(N)=O)[nH]c2c1 (configuration not stated)	12.2
Cc1nc(C)n(CC2CCCCN2CCS(C)(=O)=O)n1 (configuration not stated)	-4.88

====

Biological target: Proteasome subunit beta (Trypanosoma cruzi) (UniProt O96673)
Sequence (O96673 as listed by the source): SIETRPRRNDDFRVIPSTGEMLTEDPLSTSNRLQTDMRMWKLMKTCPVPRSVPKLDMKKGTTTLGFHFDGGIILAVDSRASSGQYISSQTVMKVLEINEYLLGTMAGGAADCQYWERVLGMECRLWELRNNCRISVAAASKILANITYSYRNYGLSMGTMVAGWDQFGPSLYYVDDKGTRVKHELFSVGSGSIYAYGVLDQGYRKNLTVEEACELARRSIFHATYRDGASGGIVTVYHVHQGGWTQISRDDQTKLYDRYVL
Assay: Trypanosoma cruzi proteasome chymotrypsin-like activity (TcProtChymo) assay. Also: in the data most compounds retested in dose-response had high values.
Format: functional
Design: scale not given: direction of the effect not stated beside the values
Conditions: 9.37 µM
measure name: Percent Effect

compound	measure name	value observed
COC(=O)c1ccc2ccn(CC3CCCO3)c(=O)c2c1 (stereo unspecified)	Percent Effect	16.3%
Cn1c(CN2CCOCC2)nnc1C1CCN(C(=O)C2CCCC2)CC1	Percent Effect	20.9%
Cc1noc([C@@]23CCO[C@@H]2CCN(CC2CCOCC2)C3)n1	Percent Effect	9.91%
CCN1C[C@H]2CCN(C(=O)NC3CCCC3)CC[C@H]2S1(=O)=O	Percent Effect	15.5%
Cc1n[nH]c(C2CN(C(=O)c3cc(C4CC4)[nH]n3)CCO2)n1 (stereo unspecified)	Percent Effect	9.78%
CCCc1cc(C(=O)N(C)Cc2cccc3ncccc23)n(C)n1	Percent Effect	14.6%

====

Below: a set of entries, each annotated with reported Percent Effect.
Target: Tyrosyl-tRNA synthetase, putative (Trypanosoma cruzi (strain CL Brener)) (UniProt Q4DSP6)
Assay: Trypanosoma cruzi tyrosyl tRNA synthetase (TcYRS) SOP
Type: functional
Design: scale not given: direction of the effect not stated beside the values
Details: 30 µM

molecule	assayed target	unit abbrev	Percent Effect
CS(=O)(=O)Cc1cccc(C(=O)NCC2Cc3ccccc3O2)c1 (centres undefined)	Tyrosyl-tRNA synthetase, putative (Trypanosoma cruzi (strain CL Brener)) (UniProt Q4DSP6)	%	15
COCc1c(C(=O)O)nnn1Cc1cccc(C(F)(F)F)c1	Tyrosyl-tRNA synthetase, putative (Trypanosoma cruzi (strain CL Brener)) (UniProt Q4DSP6)	%	10.3
CC(=O)NCCc1ccc(S(=O)(=O)N(CC(C)C)C(C)C)s1	Tyrosyl-tRNA synthetase, putative (Trypanosoma cruzi (strain CL Brener)) (UniProt Q4DSP6)	%	-5.13
COc1ccccc1C1CNC(=O)c2nc(-c3cnn(C)c3)[nH]c2C1 (centres undefined)	Tyrosyl-tRNA synthetase, putative (Trypanosoma cruzi (strain CL Brener)) (UniProt Q4DSP6)	%	17.1
O=C(C1=CCCC1)N1CCO[C@H]2[C@@H](OCC3CC3)CC[C@@H]21	Tyrosyl-tRNA synthetase, putative (Trypanosoma cruzi (strain CL Brener)) (UniProt Q4DSP6)	%	22.5
Cc1ccccc1C1(CNC(=O)NCCc2nnc3n2CCC3)CC1	Tyrosyl-tRNA synthetase, putative (Trypanosoma cruzi (strain CL Brener)) (UniProt Q4DSP6)	%	-2.6
CN(Cc1ccsc1)C(=O)Nc1cccnc1N1CCCC1	Tyrosyl-tRNA synthetase, putative (Trypanosoma cruzi (strain CL Brener)) (UniProt Q4DSP6)	%	3.7
COc1ccc(-c2noc(C(=O)NCCN3CCCCC3)n2)cc1OC	Tyrosyl-tRNA synthetase, putative (Trypanosoma cruzi (strain CL Brener)) (UniProt Q4DSP6)	%	-5.13
Cc1nc([C@@H]2C[C@@H]3CCN(C(=O)c4occc4C)C[C@H]3O2)no1	Tyrosyl-tRNA synthetase, putative (Trypanosoma cruzi (strain CL Brener)) (UniProt Q4DSP6)	%	-5
CC(=O)N(Cc1noc(C)n1)C1CCN(Cc2ccon2)C1 (centres undefined)	Tyrosyl-tRNA synthetase, putative (Trypanosoma cruzi (strain CL Brener)) (UniProt Q4DSP6)	%	15.2
CN(C(=O)c1cccc2[nH]ncc12)C1CCN(c2ccccn2)CC1	Tyrosyl-tRNA synthetase, putative (Trypanosoma cruzi (strain CL Brener)) (UniProt Q4DSP6)	%	2.35
Cc1cc(=O)n2ncnc2n1CC(O)c1ccccc1Cl (centres undefined)	Tyrosyl-tRNA synthetase, putative (Trypanosoma cruzi (strain CL Brener)) (UniProt Q4DSP6)	%	7.79
CN(Cc1nnc(C2CC2)n1C)C1CCN(Cc2ccc(F)cc2)C1 (centres undefined)	Tyrosyl-tRNA synthetase, putative (Trypanosoma cruzi (strain CL Brener)) (UniProt Q4DSP6)	%	18.5
CC(C)C(=O)NCCNc1nccc(-c2cc(C(=O)O)ccn2)n1	Tyrosyl-tRNA synthetase, putative (Trypanosoma cruzi (strain CL Brener)) (UniProt Q4DSP6)	%	20
Cn1cc(CN2CCCn3cnc(COCC4CC4)c3C2)cn1	Tyrosyl-tRNA synthetase, putative (Trypanosoma cruzi (strain CL Brener)) (UniProt Q4DSP6)	%	15
COc1ccccc1CC1CCCN(CCC#N)C1 (centres undefined)	Tyrosyl-tRNA synthetase, putative (Trypanosoma cruzi (strain CL Brener)) (UniProt Q4DSP6)	%	11.8
CCn1nc(CC(C)C)cc1C(=O)NCCCOC	Tyrosyl-tRNA synthetase, putative (Trypanosoma cruzi (strain CL Brener)) (UniProt Q4DSP6)	%	7.69
Cc1cnn(CCNCC(O)COc2c(C)ccc(C)c2C)c1 (centres undefined)	Tyrosyl-tRNA synthetase, putative (Trypanosoma cruzi (strain CL Brener)) (UniProt Q4DSP6)	%	21.5
CCn1cnnc1CNC(=O)N(C)Cc1ccc2c(c1)OCCO2	Tyrosyl-tRNA synthetase, putative (Trypanosoma cruzi (strain CL Brener)) (UniProt Q4DSP6)	%	25.9
O=C(c1cc(Cl)cc(Cl)c1)N1CCN(c2nccs2)CC1	Tyrosyl-tRNA synthetase, putative (Trypanosoma cruzi (strain CL Brener)) (UniProt Q4DSP6)	%	20
O=C(NCc1cc(=O)n2c(n1)CN(CC1CCOC1)CCC2)C1CC1 (centres undefined)	Tyrosyl-tRNA synthetase, putative (Trypanosoma cruzi (strain CL Brener)) (UniProt Q4DSP6)	%	11.1
CC(=O)c1cccc(NC(=O)Cn2cc(I)cn2)c1	Tyrosyl-tRNA synthetase, putative (Trypanosoma cruzi (strain CL Brener)) (UniProt Q4DSP6)	%	2.6
O=C(COCc1nc(-c2ccncc2)no1)N1CCCC1	Tyrosyl-tRNA synthetase, putative (Trypanosoma cruzi (strain CL Brener)) (UniProt Q4DSP6)	%	13.6
Cc1nc(CN2C[C@@H]3CN(C(=O)c4cnccn4)C[C@@H]3C2)cs1	Tyrosyl-tRNA synthetase, putative (Trypanosoma cruzi (strain CL Brener)) (UniProt Q4DSP6)	%	16.1

====

Measured Percent Effect values are reported for all entries that follow.
Biological target: Ubiquitin-activating enzyme e1, putative (Leishmania donovani (strain BPK282A1)) (UniProt E9BSI1)
Sequence (E9BSI1 as listed by the source): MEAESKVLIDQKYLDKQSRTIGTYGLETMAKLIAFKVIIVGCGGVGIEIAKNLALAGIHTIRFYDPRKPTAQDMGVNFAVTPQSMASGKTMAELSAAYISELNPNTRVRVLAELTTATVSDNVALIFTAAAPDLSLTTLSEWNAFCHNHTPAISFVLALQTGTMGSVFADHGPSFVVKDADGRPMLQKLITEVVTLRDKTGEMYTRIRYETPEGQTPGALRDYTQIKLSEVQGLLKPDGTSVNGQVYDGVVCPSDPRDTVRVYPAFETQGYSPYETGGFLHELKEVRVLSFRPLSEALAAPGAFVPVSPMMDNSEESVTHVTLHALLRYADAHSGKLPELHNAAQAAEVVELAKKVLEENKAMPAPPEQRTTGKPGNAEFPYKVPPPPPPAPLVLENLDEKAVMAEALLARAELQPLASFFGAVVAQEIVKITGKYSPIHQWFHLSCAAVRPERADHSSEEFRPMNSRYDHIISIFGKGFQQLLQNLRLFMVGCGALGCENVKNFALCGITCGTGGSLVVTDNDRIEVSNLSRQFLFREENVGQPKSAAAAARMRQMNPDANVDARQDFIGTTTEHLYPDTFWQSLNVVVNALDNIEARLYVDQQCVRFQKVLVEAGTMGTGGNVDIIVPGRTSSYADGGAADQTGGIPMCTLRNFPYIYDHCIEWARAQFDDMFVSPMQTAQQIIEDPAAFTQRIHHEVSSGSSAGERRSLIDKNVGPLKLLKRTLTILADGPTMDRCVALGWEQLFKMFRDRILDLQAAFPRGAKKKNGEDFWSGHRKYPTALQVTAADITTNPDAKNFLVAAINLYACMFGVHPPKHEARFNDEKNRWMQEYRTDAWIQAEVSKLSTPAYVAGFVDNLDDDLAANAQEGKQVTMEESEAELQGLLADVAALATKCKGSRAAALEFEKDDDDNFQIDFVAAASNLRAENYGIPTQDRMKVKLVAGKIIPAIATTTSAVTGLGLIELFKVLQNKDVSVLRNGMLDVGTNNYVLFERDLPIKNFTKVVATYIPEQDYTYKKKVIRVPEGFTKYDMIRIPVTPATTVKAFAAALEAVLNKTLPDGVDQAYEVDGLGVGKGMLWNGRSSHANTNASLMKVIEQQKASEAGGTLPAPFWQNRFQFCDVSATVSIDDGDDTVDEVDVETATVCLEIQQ
Test: Leishmania donovani Ubiquitin Activating Enzyme (LdE1)
Assay type: functional
Design: scale not given: direction of the effect not stated beside the values
Details: 30 µM
Measured potencies and affinities stand elsewhere.

molecule	Percent Effect (%)
CN(C)C(=O)CO[C@H]1CN(Cc2ccc(F)cc2)[C@@H]2CCCO[C@H]12	10.4
Cc1cnc(CN2CCOC(Cn3nc(C)nc3C)C2)cn1 (stereo unspecified)	17.7
Cc1ccn(-c2ccccc2NCc2ncc[nH]2)n1	8.22
Cc1csc(C2CCCN(C(=O)c3cnc[nH]3)C2)n1 (stereo unspecified)	10.8
CN(C)S(=O)(=O)N1CCCC1CC(=O)c1cccs1 (stereo unspecified)	2.7
Cc1cc(N2CCCC2c2cnccn2)ncn1 (stereo unspecified)	6.76

====

Biological target: Protein translocase subunit SecA (Escherichia coli (strain K12)) (UniProt P10408)
Sequence (P10408 whole entry): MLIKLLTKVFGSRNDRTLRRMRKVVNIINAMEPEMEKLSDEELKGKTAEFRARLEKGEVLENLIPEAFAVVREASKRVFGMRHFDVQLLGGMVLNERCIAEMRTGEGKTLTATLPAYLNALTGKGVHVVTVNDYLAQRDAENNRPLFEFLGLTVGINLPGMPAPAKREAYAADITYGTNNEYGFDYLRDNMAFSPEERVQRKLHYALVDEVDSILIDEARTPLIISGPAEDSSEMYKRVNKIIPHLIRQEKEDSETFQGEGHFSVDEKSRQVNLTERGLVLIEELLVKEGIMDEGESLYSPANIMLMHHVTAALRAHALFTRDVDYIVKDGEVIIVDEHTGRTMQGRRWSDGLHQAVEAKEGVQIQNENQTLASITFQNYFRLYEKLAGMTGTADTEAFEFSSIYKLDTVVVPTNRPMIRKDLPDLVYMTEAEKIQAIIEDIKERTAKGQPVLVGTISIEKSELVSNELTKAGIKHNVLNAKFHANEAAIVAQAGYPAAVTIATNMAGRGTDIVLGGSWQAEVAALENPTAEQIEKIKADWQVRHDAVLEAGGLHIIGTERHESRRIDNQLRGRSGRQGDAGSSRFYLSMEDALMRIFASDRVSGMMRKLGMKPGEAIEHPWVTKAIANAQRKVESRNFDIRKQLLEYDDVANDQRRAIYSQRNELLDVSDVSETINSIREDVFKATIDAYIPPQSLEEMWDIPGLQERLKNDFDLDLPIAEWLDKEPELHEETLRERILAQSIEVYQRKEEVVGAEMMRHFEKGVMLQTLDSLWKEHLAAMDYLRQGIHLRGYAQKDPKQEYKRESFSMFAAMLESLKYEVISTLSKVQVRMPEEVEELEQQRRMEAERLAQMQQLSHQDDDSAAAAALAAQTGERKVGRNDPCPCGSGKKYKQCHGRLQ
Experiment: Assay to Identify E. coli SecA ATPase Inhibitors
Type: functional
Design: scale not given: direction of the effect not stated beside the values
Conditions: 30 µM
Measured potencies and affinities stand elsewhere.

compound	unit abbrev	Percent Effect
CNC(=O)C1CCN(C(=O)c2ccn(-c3ccc(F)cc3)n2)CC1	%	-3.93
Cc1nnc2n1CCN(Cc1csc(Cc3ccccc3)n1)C2	%	-5.45
Cc1cnn(CC(C)NCc2nc(-c3cccnc3)no2)c1 (configuration not stated)	%	-6.08
COc1cccn(CC(=O)N(C)Cc2ccoc2)c1=O	%	-7
Cc1cccc(CN(C)Cc2nc3c(cnn3C)c(=O)[nH]2)c1	%	-3.57
Cc1ccc(CN2CC3(CCN(C(=O)c4cscn4)C3)C2)s1	%	1.32
COc1cc(C)sc1C(=O)N1CCC(Nc2cccnc2)CC1	%	-6.41
O=C(c1cccnc1)N1CCCC(c2cc(C(F)F)n3ncnc3n2)C1 (configuration not stated)	%	-4.9
COc1ccc(CNCC(C)Oc2ccccn2)cc1Br (configuration not stated)	%	0.219
Cc1nc(CCCNC(=O)C2CC(=O)N(C3CC3)C2)sc1C (configuration not stated)	%	6.83
Cn1cc(C(=O)CC2CCCN2C(=O)c2cncc3ccccc23)cn1 (configuration not stated)	%	-2.2
COc1cc2ncn(CC(=O)NCCCN(C)C)c(=O)c2cc1OC	%	-1.85
